All figures here come from patent US20240374730A1.

tested on: VEGF-stimulated human umbilical vein endothelial cells (HUVECs); assay: MTT cell viability of VEGF-stimulated HUVECs (dasatinib vs Di-DAS); format: cell-based; settings: HUVEC, 20 ng/mL VEGF165, 48 h, read-out: 50% inhibition concentration (IC50)
PROPERTY_NAME: pIC50
Give bare numbers, as −log10 of the molar value.

Prompt: Supply reported pIC50 belonging to this compound: Cc1nc(Nc2ncc(C(=O)Nc3c(C)cccc3Cl)s2)cc(N2CCN(CCO)CC2)n1 [DAS, dasatinib]
Completion: 6.04
